Form: system (Tyrosine-protein kinase JAK2 (Homo sapiens)), quantity (IC50), values below.
measurement-label: IC50 (nM)

Cc1[nH]nc2[nH]c(=O)cc([C@H]3CC[C@H](CC(=O)N4CC(C#N)C4)CC3)c12 :: 64
Cc1[nH]nc2[nH]c(=O)c(CO)c(C3CCCCC3)c12 :: 2800
Cc1[nH]nc2[nH]c(=O)cc([C@H]3CC[C@H](CC(=O)N4CCC(c5ccccc5)C4)CC3)c12 (mixture of isomers) :: 19
Cc1[nH]nc2[nH]c(=O)cc([C@H]3CC[C@H](NC(=O)[C@@H]4CC4(F)F)CC3)c12 :: 120

====

Entries with their measured IC50, system Tyrosine-protein kinase JAK1 (Homo sapiens):
measurement-label: IC50 (nM)

Cc1[nH]nc2[nH]c(=O)cc([C@H]3CC[C@H](CC(=O)N4CCC(c5ccccc5)C4)CC3)c12 (mixture of isomers) :: 2.1
Cc1[nH]nc2[nH]c(=O)cc([C@H]3CC[C@H](NS(=O)(=O)CC4CCC4)CC3)c12 :: 40
Cc1[nH]nc2[nH]c(=O)cc([C@H]3C[C@H]4CC[C@@H]3C4)c12 (racemic) :: 46
Cc1[nH]nc2[nH]c(=O)c(C#N)c(C3CCCCC3)c12 :: 2100
Cc1[nH]nc2[nH]c(=O)cc([C@H]3CC[C@H](NC(=O)[C@H]4CC4(F)F)CC3)c12 :: 78
Cc1[nH]nc2[nH]c(=O)cc([C@@H]3C[C@H]4CC[C@@H]3C4)c12 (racemic) :: 44
Cc1[nH]nc2[nH]c(=O)cc(C3CCCCC3)c12 :: 130
Cc1[nH]nc2[nH]c(=O)cc([C@H]3CC[C@H](CC(=O)N4CCC(C)(C)CC4)CC3)c12 :: 3.4
Cc1[nH]nc2[nH]c(=O)cc(C3CC4CCC3CC4)c12 (racemic) :: 54
Cc1[nH]nc2[nH]c(=O)cc([C@H]3CC[C@H](C(=O)NC4CC4)CC3)c12 :: 2000
O=c1cc(C2CCCCC2)c2c[nH]nc2[nH]1 :: 15000
Cc1[nH]nc2[nH]c(=O)cc(CC3CCC3)c12 :: 120
Cc1[nH]nc2[nH]c(=O)cc([C@H]3CC[C@H](CC(=O)N4CC(C#N)C4)CC3)c12 :: 13
Cc1[nH]nc2[nH]c(=O)cc([C@H]3CC[C@H](OC(=O)[C@@H]4CC4(F)F)CC3)c12 :: 14
Cc1[nH]nc2[nH]c(=O)cc(-c3ccccc3)c12 :: 2200
Cc1[nH]nc2[nH]c(=O)cc([C@H]3CC[C@H](CC(=O)N4CCC(C#N)C4)CC3)c12 (mixture of isomers) :: 11
Cc1[nH]nc2[nH]c(=O)cc(C3CCCC3)c12 :: 72
Cc1[nH]nc2[nH]c(=O)cc([C@H]3CCCC[C@H]3C)c12 (racemic) :: 40
Cc1[nH]nc2[nH]c(=O)cc([C@H]3CC[C@H](CC#N)CC3)c12 :: 40
Cc1[nH]nc2[nH]c(=O)cc([C@H]3CC[C@H](NC(=O)[C@@H]4CC4(F)F)CC3)c12 :: 6.4

====

Measured pIC50 (Tyrosine-protein kinase JAK1 (Homo sapiens, UniProt P23458))
pIC50: −log10 of the molar value.
measurement-label: pIC50

Cc1cc(=O)[nH]c2nn(C)c(C)c12 :: < 3.30
O=c1cc(C(F)F)c2c[nH]nc2[nH]1 :: < 4.00
Cc1cc(O)nc2c1c(C)nn2C :: < 3.05
